Field: IC50. Provide a value for each of the compounds that follow.
# target or test system: HsIPMK (Homo sapiens)
# Sequence (Q8NFU5 whole entry): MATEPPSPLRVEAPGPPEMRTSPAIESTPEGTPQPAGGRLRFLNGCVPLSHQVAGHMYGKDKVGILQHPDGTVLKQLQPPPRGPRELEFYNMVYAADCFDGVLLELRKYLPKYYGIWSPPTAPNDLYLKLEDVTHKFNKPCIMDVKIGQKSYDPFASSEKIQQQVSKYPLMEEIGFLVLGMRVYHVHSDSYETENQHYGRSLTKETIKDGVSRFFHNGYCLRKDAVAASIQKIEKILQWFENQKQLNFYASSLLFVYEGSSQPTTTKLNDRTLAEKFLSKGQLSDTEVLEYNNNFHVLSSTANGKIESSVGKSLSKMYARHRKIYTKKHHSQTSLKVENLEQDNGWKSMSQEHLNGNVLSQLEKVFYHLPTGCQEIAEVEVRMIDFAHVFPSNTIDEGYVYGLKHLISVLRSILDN
# test protocol: Kinase-Glo enzyme inhibition assay, recombinant HsIPMK; further: 6 ng/µL enzyme
# Description: The 2,6-disubstituted purine compounds are ATP-competitive IPK inhibitors. […] The amount of IP3 and kinase used for each recombinant enzyme was determined following the manufacturer’s instructions, and this concentration was used to assess the inhibitory properties of TNP analogues against each of the recombinant enzymes. The analogues were dissolved in DMSO. […] Luminescence (RLU) was measured using a SpectraMax iD5 and an integration time of 0.5 s. […] Next, we determined the inhibitory properties of TNP. […]
Numbers only, in µM.

Answered examples (4):
COCCNc1nc(NCc2cccc(I)c2)nc2[nH]cnc12
48
FC(F)(F)c1cccc(CNc2nc(NCc3ccccc3)c3nc[nH]c3n2)c1
32
c1ccc(CNc2nc(NCC3CCOCC3)nc3[nH]cnc23)cc1
123
COCCNc1nc(NCCc2ccc(OC)cc2)nc2[nH]cnc12
19

INPUT: Entry FC(F)(F)c1cccc(CNc2nc(NCc3cccnc3)c3nc[nH]c3n2)c1 needs its IC50 filled in; supply it.
OUTPUT: 75

----------
# target or test system: CnArg1 (IP3-4K from C. neoformans) (Cryptococcus neoformans var. grubii, UniProt J9W3G0)
# Sequence (J9W3G0 entry or part of it): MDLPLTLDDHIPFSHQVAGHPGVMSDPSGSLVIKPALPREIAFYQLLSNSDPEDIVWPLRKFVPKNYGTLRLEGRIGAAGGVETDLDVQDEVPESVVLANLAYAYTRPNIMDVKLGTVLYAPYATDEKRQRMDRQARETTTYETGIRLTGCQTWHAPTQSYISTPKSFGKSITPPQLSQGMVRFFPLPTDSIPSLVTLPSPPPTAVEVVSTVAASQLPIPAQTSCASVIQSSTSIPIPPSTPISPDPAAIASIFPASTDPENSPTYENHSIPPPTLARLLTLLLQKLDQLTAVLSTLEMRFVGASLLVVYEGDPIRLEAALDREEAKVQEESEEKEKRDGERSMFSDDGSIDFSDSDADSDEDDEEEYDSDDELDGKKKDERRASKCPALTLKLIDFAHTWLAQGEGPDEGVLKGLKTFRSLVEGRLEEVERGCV
# test protocol: Kinase-Glo enzyme inhibition assay, recombinant CnArg1
# condition context: 10 µM ATP, 50 µM IP3, 2.5 ng/µL enzyme, 10 min, room temperature, 5% DMSO; mean ± SEM
# Description: The 2,6-disubstituted purine compounds are ATP-competitive IPK inhibitors. […] The amount of IP3 and kinase used for each recombinant enzyme was determined following the manufacturer’s instructions, and this concentration was used to assess the inhibitory properties of TNP analogues against each of the recombinant enzymes. The analogues were dissolved in DMSO. […] Luminescence (RLU) was measured using a SpectraMax iD5 and an integration time of 0.5 s. […] Next, we determined the inhibitory properties of TNP. […]
reported metric: pIC50
Answers are plain numbers, as −log10 of the molar value.

NCc1cccc(CNc2nc(NCc3ccccc3)c3[nH]cnc3n2)c1 [Compound 15]
4.34
COCCNc1nc(NCc2cccc(O)c2)nc2[nH]cnc12 [Compound 36]
4.26

INPUT: Entry Brc1cccc(CNc2nc(NCc3ccccc3)c3nc[nH]c3n2)c1 [Compound 14] needs its pIC50 filled in; supply it.
OUTPUT: 4.36

----------
# target or test system: CnArg1 (IP3-4K from C. neoformans) (Cryptococcus neoformans var. grubii)
# test protocol: Kinase-Glo enzyme inhibition assay, recombinant CnArg1
# condition context: 10 µM ATP, 50 µM IP3, 2.5 ng/µL enzyme, 10 min, room temperature, 5% DMSO; mean ± SEM
reported metric: IC50 (µM)
Give bare numbers, in µM.

Answered examples (5):
Fc1ccc(CNc2nc(NCc3ccccc3)c3nc[nH]c3n2)cc1
21
COCCNc1nc(NCc2cccnc2)nc2[nH]cnc12
87
FC(F)(F)Oc1cccc(CNc2nc(NCc3ccccc3)c3nc[nH]c3n2)c1
77
FC(F)Oc1cccc(CNc2nc(NCc3ccccc3)c3nc[nH]c3n2)c1
20
FC(F)(F)Oc1ccccc1CNc1nc(NCc2ccccc2)c2nc[nH]c2n1 [Compound 21]
57

Take each entry in turn and give its IC50.
1. COCCNc1nc(NCCc2ccc(OC)cc2)nc2[nH]cnc12
2. COCCNc1nc(Nc2ccc(OC)cc2)nc2[nH]cnc12
3. COc1ccc(CNc2nc(NCc3cccc(C(F)(F)F)c3)nc3[nH]cnc23)cc1

OUTPUT:
[22, 14, 82]

INPUT: Entry FC(F)(F)c1cccc(CNc2nc(N3CCOCC3)c3nc[nH]c3n2)c1 needs its IC50 filled in; supply it.
OUTPUT: 24
